Test system: MCF-7 cells
Test: Cell cycle progression by flow cytometry, MCF-7
Assay type: cell-based, human
Conditions: MCF-7, 72 h, compound at its EC50
test_readout: cells in S (%)
Report the value in % with no unit label.

Reported cells in S for CCCC(=O)OCCCn1cnc2c(Br)c(Br)c(Br)c(Br)c21 [Compound 3a] was 28.4

Reported cells in S for CCCCCCCC(=O)OCCCn1c(C)nc2c(Br)c(Br)c(Br)c(Br)c21 [Compound 6c] was 27.7

Reported cells in S for CCCCCCCC(=O)OCCCn1cnc2c(Br)c(Br)c(Br)c(Br)c21 [Compound 3c] was 29.6

Reported cells in S for Cc1nc2c(Br)c(Br)c(Br)c(Br)c2[nH]1 [Compound 4, reference compound] was 29.7

Reported cells in S for Cc1nc2c(Br)c(Br)c(Br)c(Br)c2n1CCCO [Compound 5] was 26.3

---

Target: PIM1 (Homo sapiens, UniProt P11309)
Sequence (P11309 whole entry, species assumed): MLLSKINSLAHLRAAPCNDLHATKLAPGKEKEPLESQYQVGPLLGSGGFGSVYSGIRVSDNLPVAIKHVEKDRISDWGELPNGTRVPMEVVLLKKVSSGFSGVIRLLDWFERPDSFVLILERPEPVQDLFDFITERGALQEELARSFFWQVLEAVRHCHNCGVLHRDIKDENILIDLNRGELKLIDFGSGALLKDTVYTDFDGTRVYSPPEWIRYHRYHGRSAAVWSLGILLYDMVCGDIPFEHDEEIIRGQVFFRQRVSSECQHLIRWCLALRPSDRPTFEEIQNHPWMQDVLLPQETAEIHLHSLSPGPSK
Assay: Radiometric (P81 filter isotopic) kinase assay, PIM1
Conditions: calculated from IC50 by Cheng and Prusoff equation
test_readout: Ki
Report as: number unit

Reported Ki for OCCCn1cnc2c(Br)c(Br)c(Br)c(Br)c21 [Compound 2] was 0.42 µM

Reported Ki for Cc1nc2c(Br)c(Br)c(Br)c(Br)c2n1CCCO [Compound 5] was 0.15 µM

Reported Ki for Brc1c(Br)c(Br)c2[nH]cnc2c1Br [Compound 1, 4,5,6,7-tetrabromo-1H-benzimidazole, reference compound] was 0.27 µM

Reported Ki for Cc1nc2c(Br)c(Br)c(Br)c(Br)c2[nH]1 [Compound 4, reference compound] was 0.21 µM

---

Test system: MCF-7 cells
Assay: Cell cycle progression by flow cytometry, MCF-7
Type: cell-based, human
Settings: MCF-7, 72 h, compound at its EC50
In plain terms, low cells in S, meaning strictly below 30%, gives t, and everything else gives f.

Find out if reported cells in S for O=C(O)c1ccc2c(c1)nc(Nc1cccc(Cl)c1)c1ccncc12 [CX-4945, silmitasertib, reference compound] is less than 30%
f

Find out if reported cells in S for `CCCC(=O)OCCCn1c(C)nc2c(Br)c(Br)c(Br)c(Br)c21` is less than 30%
t

Find out if reported cells in S for `CCCCCC(=O)OCCCn1cnc2c(Br)c(Br)c(Br)c(Br)c21` is less than 30%
t

Find out if reported cells in S for Brc1c(Br)c(Br)c2[nH]cnc2c1Br [Compound 1, 4,5,6,7-tetrabromo-1H-benzimidazole, reference compound] is less than 30%
t

Find out if reported cells in S for `OCCCn1cnc2c(Br)c(Br)c(Br)c(Br)c21` is less than 30%
f

---

Target: CK2 holoenzyme (CK2 α2β2) (Homo sapiens, UniProt P68400)
Sequence (P68400 whole entry): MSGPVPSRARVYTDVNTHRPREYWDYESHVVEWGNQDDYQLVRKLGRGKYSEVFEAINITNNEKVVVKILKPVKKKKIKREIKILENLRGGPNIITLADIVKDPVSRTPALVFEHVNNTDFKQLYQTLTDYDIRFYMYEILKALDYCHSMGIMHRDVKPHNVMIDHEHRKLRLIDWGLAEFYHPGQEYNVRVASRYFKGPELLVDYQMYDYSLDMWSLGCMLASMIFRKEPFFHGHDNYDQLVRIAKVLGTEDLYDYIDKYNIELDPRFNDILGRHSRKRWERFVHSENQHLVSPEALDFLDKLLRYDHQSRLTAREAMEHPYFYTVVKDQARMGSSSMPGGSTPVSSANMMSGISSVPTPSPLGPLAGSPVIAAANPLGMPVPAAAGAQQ
Sequence (P67870 whole entry partner): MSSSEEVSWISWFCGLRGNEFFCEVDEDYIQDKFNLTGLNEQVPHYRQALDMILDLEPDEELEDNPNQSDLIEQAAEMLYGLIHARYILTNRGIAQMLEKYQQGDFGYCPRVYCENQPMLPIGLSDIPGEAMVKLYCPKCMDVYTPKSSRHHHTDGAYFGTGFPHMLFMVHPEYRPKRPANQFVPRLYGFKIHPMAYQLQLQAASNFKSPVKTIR
Experiment: Radiometric (P81 filter isotopic) kinase assay, CK2 holoenzyme
Assay type: biochemical
Conditions: 5 µM compound; read-out: Residual Activity of the Enzyme CK2 α2β2
Assignment: determine reported remaining activity at 5 µM for the given molecules.

Item CCCCCC(=O)OCCCn1cnc2c(Br)c(Br)c(Br)c(Br)c21 [Compound 3b] was tested on CK2 holoenzyme (CK2 α2β2) (Homo sapiens, UniProt P68400); the reported remaining activity at 5 µM is 85.5%

Item CCCCCCCC(=O)OCCCn1c(C)nc2c(Br)c(Br)c(Br)c(Br)c21 [Compound 6c] was tested on CK2 holoenzyme (CK2 α2β2) (Homo sapiens, UniProt P68400); the reported remaining activity at 5 µM is 90.2%

Item CCCCCCCC(=O)OCCCn1cnc2c(Br)c(Br)c(Br)c(Br)c21 [Compound 3c] was tested on CK2 holoenzyme (CK2 α2β2) (Homo sapiens, UniProt P68400); the reported remaining activity at 5 µM is 95.3%

Item CCCC(=O)OCCCn1c(C)nc2c(Br)c(Br)c(Br)c(Br)c21 [Compound 6a] was tested on CK2 holoenzyme (CK2 α2β2) (Homo sapiens, UniProt P68400); the reported remaining activity at 5 µM is 75.6%

Item CCCCCC(=O)OCCCn1c(C)nc2c(Br)c(Br)c(Br)c(Br)c21 [Compound 6b] was tested on CK2 holoenzyme (CK2 α2β2) (Homo sapiens, UniProt P68400); the reported remaining activity at 5 µM is 85.4%

Item O=C(O)c1ccc2c(c1)nc(Nc1cccc(Cl)c1)c1ccncc12 [CX-4945, silmitasertib, reference compound] was tested on CK2 holoenzyme (CK2 α2β2) (Homo sapiens, UniProt P68400); the reported remaining activity at 5 µM is 0%

Item Cc1nc2c(Br)c(Br)c(Br)c(Br)c2n1CCCO [Compound 5] was tested on CK2 holoenzyme (CK2 α2β2) (Homo sapiens, UniProt P68400); the reported remaining activity at 5 µM is 14.2%

Item Cc1nc2c(Br)c(Br)c(Br)c(Br)c2[nH]1 [Compound 4, reference compound] was tested on CK2 holoenzyme (CK2 α2β2) (Homo sapiens, UniProt P68400); the reported remaining activity at 5 µM is 6%

Item CCCC(=O)OCCCn1cnc2c(Br)c(Br)c(Br)c(Br)c21 [Compound 3a] was tested on CK2 holoenzyme (CK2 α2β2) (Homo sapiens, UniProt P68400); the reported remaining activity at 5 µM is 58%

---

System: MCF-7 cells
Assay: MTT viability assay, MCF-7
Type: cell-based
Settings: Homo sapiens, MCF7, 24 h, read-out: EC50 ± SD MCF-7
test_readout: pEC50
In textbook form, pEC50 equals minus log to base ten of the concentration in mol/L.

Reported pEC50 for Cc1nc2c(Br)c(Br)c(Br)c(Br)c2[nH]1 [Compound 4, reference compound] was 5.39

Reported pEC50 for `CCCC(=O)OCCCn1c(C)nc2c(Br)c(Br)c(Br)c(Br)c21` was 4.70

Reported pEC50 for Brc1c(Br)c(Br)c2[nH]cnc2c1Br [Compound 1, 4,5,6,7-tetrabromo-1H-benzimidazole, reference compound] was 4.68

Reported pEC50 for `CCCCCC(=O)OCCCn1c(C)nc2c(Br)c(Br)c(Br)c(Br)c21` was 4.65

Reported pEC50 for `CCCC(=O)OCCCn1cnc2c(Br)c(Br)c(Br)c(Br)c21` was 4.53

Reported pEC50 for `CCCCCCCC(=O)OCCCn1c(C)nc2c(Br)c(Br)c(Br)c(Br)c21` was 4.59

---

Assignment: determine reported remaining activity at 10 µM for the given molecules.
Target: human CK2 catalytic subunit (CK2α) (Homo sapiens)
Assay: Radiometric (P81 filter isotopic) kinase assay, CK2 catalytic subunit
Assay type: biochemical
Conditions: 10 µM compound; read-out: Residual Activity of the Enzyme CK2α
Report the value in % with no unit label.

Reported remaining activity at 10 µM for `CCCCCCCC(=O)OCCCn1cnc2c(Br)c(Br)c(Br)c(Br)c21` was 79.2

Reported remaining activity at 10 µM for `CCCC(=O)OCCCn1c(C)nc2c(Br)c(Br)c(Br)c(Br)c21` was 68.4

Reported remaining activity at 10 µM for `CCCCCCCC(=O)OCCCn1c(C)nc2c(Br)c(Br)c(Br)c(Br)c21` was 84.3

Reported remaining activity at 10 µM for `Cc1nc2c(Br)c(Br)c(Br)c(Br)c2n1CCCO` was 16.3

---

Assignment: determine reported remaining activity at 10 µM for the given molecules.
Target: UniProtKB P11309
Test: Radiometric (P81 filter isotopic) kinase assay, PIM1
Assay type: biochemical
Details: 10 µM compound; read-out: Residual Activity of the Enzyme PIM1
Report the value in % with no unit label.

Item CCCCCCCC(=O)OCCCn1cnc2c(Br)c(Br)c(Br)c(Br)c21 [Compound 3c] was tested on UniProtKB P11309; the reported remaining activity at 10 µM is 95.4

Item CCCC(=O)OCCCn1cnc2c(Br)c(Br)c(Br)c(Br)c21 [Compound 3a] was tested on UniProtKB P11309; the reported remaining activity at 10 µM is 24.4

Item CCCCCC(=O)OCCCn1cnc2c(Br)c(Br)c(Br)c(Br)c21 [Compound 3b] was tested on UniProtKB P11309; the reported remaining activity at 10 µM is 74.2

Item Cc1nc2c(Br)c(Br)c(Br)c(Br)c2[nH]1 [Compound 4, reference compound] was tested on UniProtKB P11309; the reported remaining activity at 10 µM is 4.5

Item OCCCn1cnc2c(Br)c(Br)c(Br)c(Br)c21 [Compound 2] was tested on UniProtKB P11309; the reported remaining activity at 10 µM is 10.1

Item CCCCCCCC(=O)OCCCn1c(C)nc2c(Br)c(Br)c(Br)c(Br)c21 [Compound 6c] was tested on UniProtKB P11309; the reported remaining activity at 10 µM is 79.8

Item CCCCCC(=O)OCCCn1c(C)nc2c(Br)c(Br)c(Br)c(Br)c21 [Compound 6b] was tested on UniProtKB P11309; the reported remaining activity at 10 µM is 46.4

Item Cc1nc2c(Br)c(Br)c(Br)c(Br)c2n1CCCO [Compound 5] was tested on UniProtKB P11309; the reported remaining activity at 10 µM is 3.4
